target: GST-tagged recombinant human RIPK2 (Homo sapiens (Human)); test: RIP2 Kinase Assay (ADP-Glo); settings: 25 µM ATP, MBP substrate, 30° C. 60 minutes
Sequence (O43353 whole entry): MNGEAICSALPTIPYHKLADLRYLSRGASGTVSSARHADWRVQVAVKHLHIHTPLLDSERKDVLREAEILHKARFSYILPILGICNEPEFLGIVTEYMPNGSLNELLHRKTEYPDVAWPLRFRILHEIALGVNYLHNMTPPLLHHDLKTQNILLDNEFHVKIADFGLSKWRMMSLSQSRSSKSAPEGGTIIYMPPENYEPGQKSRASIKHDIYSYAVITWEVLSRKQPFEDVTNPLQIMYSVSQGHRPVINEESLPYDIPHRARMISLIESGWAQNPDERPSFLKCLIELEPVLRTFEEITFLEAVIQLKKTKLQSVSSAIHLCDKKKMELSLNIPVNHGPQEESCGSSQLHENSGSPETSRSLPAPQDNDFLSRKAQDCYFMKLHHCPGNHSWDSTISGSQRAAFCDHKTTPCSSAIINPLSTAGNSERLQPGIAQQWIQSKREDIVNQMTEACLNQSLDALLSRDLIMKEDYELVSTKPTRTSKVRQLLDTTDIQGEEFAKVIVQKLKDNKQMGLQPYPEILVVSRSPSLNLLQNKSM
pIC50: −log10 of the molar value.
Binary call on pIC50: T from 7 upward, F beneath that.

>>> assigned_class("Cc1c(-c2ccn3nc(NC(=O)[C@@H]4C[C@@H]4F)cc3c2)cnc2[nH]cc(Cl)c12 [Example 25]")
"T"
>>> assigned_class("CSc1c(-c2ccn3nc(NC(=O)[C@@H]4C[C@@H]4F)cc3c2)cnc2[nH]ccc12 [Example 14]")
"F"
>>> assigned_class("O=C(Nc1cc2cc(-c3cnc4[nH]ccc4c3)ccn2n1)[C@@H]1C[C@@H]1F [Example 1]")
"T"
